assayed target: Vascular endothelial growth factor receptor 2 (Homo sapiens, UniProt P35968)
Sequence (P35968 whole entry): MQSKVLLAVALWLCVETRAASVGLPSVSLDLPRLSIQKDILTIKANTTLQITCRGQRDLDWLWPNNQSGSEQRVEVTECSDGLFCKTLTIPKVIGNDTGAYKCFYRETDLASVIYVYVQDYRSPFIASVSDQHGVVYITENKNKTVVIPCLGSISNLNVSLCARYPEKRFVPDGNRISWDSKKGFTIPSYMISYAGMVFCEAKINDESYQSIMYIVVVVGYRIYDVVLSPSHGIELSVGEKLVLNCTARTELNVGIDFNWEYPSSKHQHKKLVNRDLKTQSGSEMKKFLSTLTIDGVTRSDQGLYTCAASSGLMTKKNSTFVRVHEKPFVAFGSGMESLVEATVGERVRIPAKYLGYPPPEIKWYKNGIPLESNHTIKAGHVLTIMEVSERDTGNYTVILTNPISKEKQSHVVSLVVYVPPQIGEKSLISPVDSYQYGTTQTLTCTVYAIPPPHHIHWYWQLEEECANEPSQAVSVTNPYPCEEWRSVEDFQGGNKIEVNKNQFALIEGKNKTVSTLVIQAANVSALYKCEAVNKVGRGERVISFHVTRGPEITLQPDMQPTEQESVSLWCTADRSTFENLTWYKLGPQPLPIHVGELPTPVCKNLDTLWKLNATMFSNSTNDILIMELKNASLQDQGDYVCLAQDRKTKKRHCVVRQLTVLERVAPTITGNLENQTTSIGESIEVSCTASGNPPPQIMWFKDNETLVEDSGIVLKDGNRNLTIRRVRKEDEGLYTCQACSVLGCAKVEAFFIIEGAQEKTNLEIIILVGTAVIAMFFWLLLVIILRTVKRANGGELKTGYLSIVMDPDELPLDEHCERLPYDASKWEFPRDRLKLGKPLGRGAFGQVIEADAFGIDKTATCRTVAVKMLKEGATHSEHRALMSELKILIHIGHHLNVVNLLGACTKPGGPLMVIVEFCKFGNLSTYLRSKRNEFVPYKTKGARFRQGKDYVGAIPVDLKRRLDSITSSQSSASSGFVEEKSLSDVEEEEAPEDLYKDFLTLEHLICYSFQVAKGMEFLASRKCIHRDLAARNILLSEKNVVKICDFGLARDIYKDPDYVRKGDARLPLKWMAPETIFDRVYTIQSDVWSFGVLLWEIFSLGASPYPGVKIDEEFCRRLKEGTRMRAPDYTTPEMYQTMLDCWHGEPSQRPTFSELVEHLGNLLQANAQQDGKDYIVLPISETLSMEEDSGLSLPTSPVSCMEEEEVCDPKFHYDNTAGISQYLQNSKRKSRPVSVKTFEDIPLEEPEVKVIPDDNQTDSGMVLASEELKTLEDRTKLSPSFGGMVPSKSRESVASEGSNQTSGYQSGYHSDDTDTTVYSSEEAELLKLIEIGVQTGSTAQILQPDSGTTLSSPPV
method summary: Inhibition of GST-tagged human recombinant VEGFR2 kinase expressed in Sf9 insect cells by radiometric protein kinase assay
test parameters: read-out: IC50
Here the recorded IC50 is given for each entry.

| cpd smiles | assayed target | IC50 |
| --- | --- | --- |
| CCS(=O)(=O)c1ccc(OC)c(Nc2cn(-c3ccc(NC(N)=O)c(-c4cccc5ccccc45)c3)nn2)c1 | Vascular endothelial growth factor receptor 2 (Homo sapiens, UniProt P35968) | > 100 µM |
| CCS(=O)(=O)c1ccc(OC)c(Nc2cn(-c3cccc(-c4cccnc4)c3)nn2)c1 | Vascular endothelial growth factor receptor 2 (Homo sapiens, UniProt P35968) | > 100 µM |
| CCS(=O)(=O)c1ccc(OC)c(Nc2cn(-c3ccc(O)c(-c4cc[nH]c4)c3)nn2)c1 | Vascular endothelial growth factor receptor 2 (Homo sapiens, UniProt P35968) | 40.1 µM |
| CCS(=O)(=O)c1ccc(OC)c(Nc2cn(-c3ccc(O)c(-c4ccccn4)c3)nn2)c1 | Vascular endothelial growth factor receptor 2 (Homo sapiens, UniProt P35968) | 6.96 µM |
| CCS(=O)(=O)c1ccc(OC)c(Nc2cn(-c3cccc(-c4ccccn4)c3)nn2)c1 | Vascular endothelial growth factor receptor 2 (Homo sapiens, UniProt P35968) | 42 µM |

----------
IC50 for assorted compounds
method summary: Cytotoxicity against human HuH7 cells incubated for 72 hrs by SRB assay
Assay type: functional, cell-based, Huh-7
test parameters: Homo sapiens, Huh-7, 72 h; read-out: IC50
test readout: IC50

| cpd smiles | reported result |
| --- | --- |
| CCS(=O)(=O)c1ccc(OC)c(Nc2cn(-c3cccc(-c4cccnc4)c3)nn2)c1 | 12.8 µM |
| CCS(=O)(=O)c1ccc(OC)c(Nc2cn(-c3ccc(O)c(-c4ccccn4)c3)nn2)c1 | 17.7 µM |
| CCS(=O)(=O)c1ccc(OC)c(Nc2cn(-c3ccc(O)c(-c4cc[nH]c4)c3)nn2)c1 | 18.6 µM |

----------
method summary: Cytotoxicity against human Mahlavu cells incubated for 72 hrs by SRB assay
Type: functional, cell-based

| cpd smiles | IC50 (µM) |
| --- | --- |
| CCS(=O)(=O)c1ccc(OC)c(Nc2cn(-c3ccc(O)c(-c4ccccn4)c3)nn2)c1 | 13.8 |
| CCS(=O)(=O)c1ccc(OC)c(Nc2cn(-c3ccc(NC(N)=O)c(-c4cccc5ccccc45)c3)nn2)c1 | 27.9 |
| CCS(=O)(=O)c1ccc(OC)c(Nc2cn(-c3cccc(-c4cccnc4)c3)nn2)c1 | 11.8 |
| CCS(=O)(=O)c1ccc(OC)c(Nc2cn(-c3ccc(O)c(-c4cc[nH]c4)c3)nn2)c1 | 11.9 |

Provenance of the data: ChEMBL document CHEMBL3632540
